# Test Method Notes: pH solubility and pKa determination
# Type: physicochemical
# Condition Set: aqueous HCl/NaOH solution, aqueous buffer, thermodynamic from solid; pH 2.28 (highest)

| Molecule | solubility at 24 h / mg/mL |
| --- | --- |
| CN1CCN(Cc2ccc(-c3cnc(N4CCOC(Cn5nnc6ncc(-c7cnn(C)c7)nc65)C4)nc3)cc2)CC1 (stereo not shown) [ABN401] | 26.9 |

----------
# Test Method Notes: Pharmacokinetic study in beagle dogs
# Type: in vivo
# Condition Set: male, beagle, dog, plasma, po, 1 mg/kg, capsule with MCC, beagle dogs, mean ± SD
Measured Property: AUC(0-t) (ng·h/mL)

| Compound | Measured Property | Reading Unit | Result Value |
| --- | --- | --- | --- |
| CN1CCN(Cc2ccc(-c3cnc(N4CCOC(Cn5nnc6ncc(-c7cnn(C)c7)nc65)C4)nc3)cc2)CC1 (stereo not shown) | AUC(0-t) | ng·h/mL | 75.4 |

----------
# Test Method Notes: Pharmacokinetic study in beagle dogs
# Type: in vivo
# Condition Set: male, beagle, dog, plasma, po, 5 mg/kg, capsule with MCC, beagle dogs, mean ± SD

| Molecule | half-life / h |
| --- | --- |
| CN1CCN(Cc2ccc(-c3cnc(N4CCOC(Cn5nnc6ncc(-c7cnn(C)c7)nc65)C4)nc3)cc2)CC1 (stereo not shown) | 7.6 |

----------
# Test Method Notes: Pharmacokinetic study in beagle dogs
# Assay type: in vivo
# Condition Set: male, beagle, dog, plasma, po, 10 mg/kg, capsule with MCC, beagle dogs, mean ± SD

| Compound | Reading Unit | AUC(0-t) |
| --- | --- | --- |
| CN1CCN(Cc2ccc(-c3cnc(N4CCOC(Cn5nnc6ncc(-c7cnn(C)c7)nc65)C4)nc3)cc2)CC1 (stereo not shown) | ng·h/mL | 302 |

----------
# Test Method Notes: Pharmacokinetic study in beagle dogs
# Assay type: in vivo
# Condition Set: male, beagle, dog, plasma, po, 1 mg/kg, capsule with MCC, beagle dogs, mean ± SD
Measured Property: Cmax (ng/mL)

| Compound | Reading Unit | Result Value |
| --- | --- | --- |
| CN1CCN(Cc2ccc(-c3cnc(N4CCOC(Cn5nnc6ncc(-c7cnn(C)c7)nc65)C4)nc3)cc2)CC1 (stereo not shown) | ng/mL | 8 |

----------
# Test Method Notes: Equilibrium solubility at different pHs and excipients by HPLC
# Type: physicochemical
# Condition Set: aqueous buffer, thermodynamic from solid; 0.1 M acetate buffer (pH 4.0)

| Compound | solubility at 24 h |
| --- | --- |
| CN1CCN(Cc2ccc(-c3cnc(N4CCOC(Cn5nnc6ncc(-c7cnn(C)c7)nc65)C4)nc3)cc2)CC1 (stereo not shown) | 7140 µg/mL |

----------
# Test Method Notes: Equilibrium solubility at different pHs and excipients by HPLC
# Type: physicochemical
# Condition Set: aqueous buffer, thermodynamic from solid; 0.1 M citrate buffer (pH 4.0)

| Molecule | Reading Unit | solubility at 24 h |
| --- | --- | --- |
| CN1CCN(Cc2ccc(-c3cnc(N4CCOC(Cn5nnc6ncc(-c7cnn(C)c7)nc65)C4)nc3)cc2)CC1 (stereo not shown) [ABN401] | mg/mL | 0.06 |

----------
# Test Method Notes: pH solubility and pKa determination
# Assay type: physicochemical
# Condition Set: aqueous HCl/NaOH solution, aqueous buffer, thermodynamic from solid; above neutral pH
Measured Property: solubility at 24 h

| Molecule | Measured Property | Result Value |
| --- | --- | --- |
| CN1CCN(Cc2ccc(-c3cnc(N4CCOC(Cn5nnc6ncc(-c7cnn(C)c7)nc65)C4)nc3)cc2)CC1 (stereo not shown) | solubility at 24 h | ≤ 10 µg/mL |
